Ref: patent US20260242478A1

Listed below: Phage binding ELISA, Anti-CD28 Fab signal in the presence of CD28 values for each entry.
# assayed system: T1, Anti-CD28 Fab (SEQ ID NOs: 696, 697)
# T1 construct: In the phage ELISA the Fab was biotinylated and captured on neutravidin coated plates
# T1 sequence (VH, as listed by the source, chain 1 of 2): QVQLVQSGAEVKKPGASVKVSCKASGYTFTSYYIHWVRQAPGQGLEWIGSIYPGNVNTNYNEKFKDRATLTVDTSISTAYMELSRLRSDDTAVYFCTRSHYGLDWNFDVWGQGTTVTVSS
# T1 sequence (VL, as listed by the source, chain 2 of 2): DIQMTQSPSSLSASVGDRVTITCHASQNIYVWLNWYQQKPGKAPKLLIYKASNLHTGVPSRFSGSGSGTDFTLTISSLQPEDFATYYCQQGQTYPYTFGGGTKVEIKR
# measurement notes: phage ELISA; plate-bound anti-CD28 Fab pre-incubated with CD28 antigen as competitor, anti-M13 HRP detection
Reply with the value as a number alone.

Solved entries (count: 3):
[
  {
    "binder": "YCDGHRGEYLQKCL (Tested as clonal phage supernatant) [Phage-592]",
    "test result": 0.09
  },
  {
    "binder": "YCDGHLPEYLPKCL (Tested as clonal phage supernatant) [Phage-603]",
    "test result": 0.09
  },
  {
    "binder": "YCDGHKAEYMDKCL (Tested as clonal phage supernatant) [Phage-600]",
    "test result": 0.07
  }
]

The binder identified as YCDGHMPEYIAKCL (Tested as clonal phage supernatant) [Phage-604] registered its Phage binding ELISA, Anti-CD28 Fab signal in the presence of CD28 at 0.08
